# System: NCI-H23 complex spheroids with HUVEC/MSC, viability
# assay_comment: Anticancer human tumor NCI-H23 cell line growth inhibition [RAS]; active means viability on the fitted dose curve at most 10% of control; inactive means the rest;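 further: spheroids exposed to compound for 7 days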
# applied_conditions: second compound 0.316 µM; first compound 0.01 µM
# Source text: RAS pathway inhibitors in Combinations in Complex Spheroids A high-throughput screen of multi-cell type tumor spheroids was designed to identify active combinations of RAS pathway inhibitors and targeted small molecules. Complex spheroids include a stromal component modeled by human endothelial cells (HUVEC) and fibroblasts modeled by human mesenchymal stem cells (MSCs). […] Compounds. […] If the clinical Cmax for an agent had not been determined, the highest concentration tested was 10 microM. […]
# valid calls are active, inactive; nothing else

Solved cases below.
molecule	class_assignment
O=C(c1ccc(F)c(F)c1Nc1ccc(I)cc1F)N1CC(O)([C@@H]2CCCCN2)C1 + C=CC(=O)N1CCN(c2nc(OCC3CCCN3C)nc3c(F)c(-c4nc(N)cc(C)c4C(F)(F)F)c(Cl)cc23)C(C)C1	inactive
C=CC(=O)N1CCN(c2nc(OCC3CCCN3C)nc3c(F)c(-c4nc(N)cc(C)c4C(F)(F)F)c(Cl)cc23)C(C)C1 (stereo unspecified) + C#Cc1c(F)ccc2cc(O)cc(-c3ncc4c(N5CC6CCC(C5)N6)nc(OCC56CCCN5CC(F)C6)nc4c3F)c12	inactive
Nc1ccn(C2OC(CO)C(O)C2(F)F)c(=O)n1 (stereo unspecified) + C=CC(=O)N1CCN(c2nc(OCC3CCCN3C)nc3c(F)c(-c4nc(N)cc(C)c4C(F)(F)F)c(Cl)cc23)C(C)C1	active
CCN1CCN(Cc2ccc(Nc3ncc(F)c(-c4cc(F)c5nc(C)n(C(C)C)c5c4)n3)nc2)CC1 + C#Cc1c(F)ccc2cc(O)cc(-c3ncc4c(N5CC6CCC(C5)N6)nc(OCC56CCCN5CC(F)C6)nc4c3F)c12	inactive

For the next question, use this molecule.
INPUT: Hello, I am checking results. What call was entered for Nc1ccn(C2OC(CO)C(O)C2(F)F)c(=O)n1 (stereo unspecified) + C#Cc1c(F)ccc2cc(O)cc(-c3ncc4c(N5CC6CCC(C5)N6)nc(OCC56CCCN5CC(F)C6)nc4c3F)c12 ?
OUTPUT: inactive
